The measurements presented in this section are drawn from the supplement of paper PMC6757056.

B1: library; a variant is named by its letters at N, in order (parent)
chain: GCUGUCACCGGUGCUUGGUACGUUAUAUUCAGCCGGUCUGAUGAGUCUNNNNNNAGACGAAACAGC

# Variants of: B1
# assay info: normalized RNA/DNA level without ligand (relative to sTRSVctl = 100) (log10 (% of sTRSVctl)); HEK293T overexpressing SLC46A1; higher = less ribozyme self-cleavage, higher mRNA level
# condition summary: without (6R,S)-folinic acid; ligand present: no
measured parameter: normalized RNA/DNA level without ligand (log10)

- GCUGUCACCGGUGCUUGGUACGUUAUAUUCAGCCGGUCUGAUGAGUCUCACCUGAGACGAAACAGC: 2.04
- GCUGUCACCGGUGCUUGGUACGUUAUAUUCAGCCGGUCUGAUGAGUCUUCUGGUAGACGAAACAGC: 1.97
- GCUGUCACCGGUGCUUGGUACGUUAUAUUCAGCCGGUCUGAUGAGUCUUGUACUAGACGAAACAGC: 1.99
- GCUGUCACCGGUGCUUGGUACGUUAUAUUCAGCCGGUCUGAUGAGUCUUUCGGUAGACGAAACAGC: 1.96
